test: yeast display, Sf9 membrane polyspecificity reagent, FACS + sequencing; frameworks hold sequencing errors
Measurement type: polyreactivity (PSR sort gate)

Consider the following illustrative entries.
QVQLVESGGGLVQAGGSLRLSCAASGRTFDWNAMGWYRQAPGKERELVAAISGGGGSTYYADSVKGRFTISRDNAKNTVYLQMNSLKPEDTEVYYCATWNYYSYHRYDYWGQGTQVTVSS ... high polyreactivity
QVQIVESGGGLVQAGGSLRLSCAASGFIFFAYAMGWYRQAPGKERELFAAISRTGGSTYYADSVKGRFTISRDNAKNTVYLQMNSLKPEDTAVYYCAADGGYYGRDYWGQGTQVTVSS ... high polyreactivity
QVQLVESGVGLVQAGGSLRLSCAASGLIFGYYAMGRNRQAPGKERELVAAITRGGGRTYYADSVKGRFTISRDNAKNTVYLQMNSLKPEDTAVYYCNAVRRVSSAGEFDYWGQGTQVTVSS ... high polyreactivity
QVQLVESGGGLVQAGGSLRLSCAASGITFYFNTMGWYRQAPGKERELVASIRNTGSTYADSVKGRFTISRDNAKNTVYLQMNSLKPEDTAVYYCAARRRKYYRGEYGYWGQGTQVTVSS ... high polyreactivity

Recorded polyreactivity (PSR sort gate) of QVQLVESGGGLVQAGGSLRLSCAASGFTFGGYAMGWYRQAPGKERELVAAISGRGGRTYYADSVKGRFTISRDNAKNTVYLQMNSLKPEDTAVYYCAAPTNHWTRLSGDYWGQGTQVTVSS , please. high polyreactivity

Recorded polyreactivity (PSR sort gate) of QVQLVESGGGLVQAGGSLRLSCAPSGFIFWRNAMGWYRQAPGKEREFVAAITSSGGRTYYADSVKGRFTISRDNAKNTVYLQMNSLKPEDTAVYYCAAEIRDYAKSYSFYWGQGTQVTVSS , please. high polyreactivity

Recorded polyreactivity (PSR sort gate) of QVQLVESGGGLVQAGGSLRLSCAASGSTFYLYAMGWYRQAPGKERELVADISWDGDSTYYADSVKGRFTISRDNAKNTVYLQMNSLKPEDTAVYYCAADYFYYYEQYLWYTYDYWGQGTQVTVSS , please. high polyreactivity

Recorded polyreactivity (PSR sort gate) of QVQLVESGGGLVQAGGSLRLSCAASASIFPRNTMGWYRPAPGKERELVAAISRSGGSTYYADSVKGRFTISRDNAKNTVYLQMNSLKPEDTAVYYCAVSGGTSRRYYYWGQGTQVTVSS , please. high polyreactivity

Recorded polyreactivity (PSR sort gate) of QVQLVESGGGLLQAGGSLRLSCAASGSNFDRYGRGWYRQAPGTERELVADITSDGSTNYADSVKGRFTISRDNAKNTVYLQMNSLKPEDTAVYYCAVSYTAYSVGYDYWGQGTQVTVSS , please. low polyreactivity

----------
assay: yeast display, Sf9 membrane polyspecificity reagent, FACS + sequencing; frameworks hold sequencing errors
Measurement type: polyreactivity (PSR sort gate)

Consider the following illustrative entries.
QVQLVESGGGLVQAGGSLRLSCAASGRTIWVYTMGWYRQAPGKERELVATINYRGGSTYYADSVKGRFTISRDNAKNTVYLQMNSLKPEDTAVYYCAADYSPPYPRYPYDYWGQGTQVTVSS ... high polyreactivity
QVQLVESGGGLVQAGGSLRLSCAASGRIFHYNAMGWYRQAPRKERELVAAISTGGSTNYADSVKGRFTISRDNAKNTVYLQMNSLKPEDTAVYYCAADHPVTYPTSKFDYWGQGTQVTVSS ... low polyreactivity
QVQLVESGGGLVQAGGSLRLSCAASGFTFYFNAMGWYRQAPGKERELVAGITSGGSTNYADSVKGRFTISRDNAKNTVYLQMNSLKPEDTAVYYCATDLLNNVDYDYWGQGTQVTVSS ... low polyreactivity
QVQLVESGGGLVQAGGSLSLSCAASGSIFGRNTMGWYRQAPGKERELVAAITLRGGSTYYADSVKGRFTISRDNAKKTVYLQMNSLKPEDTSDYYCATDGWKQSAYDYWGQGTQVTVSS ... low polyreactivity

Attention now turns to another entry.
Recorded polyreactivity (PSR sort gate) of QVQLVESGGGLVQAGGSLRLSCAASGRIFVPYAMGWSRQAPGKEREFVAAISWNTGSTYYADSVKGRFTISRDNAKNTVYLQMNSLNPVDTAVYYCAAGSGVSYEGGYKINGYWGQGTQVTVSS , please. high polyreactivity

----------
assay: yeast display, Sf9 membrane polyspecificity reagent, FACS + sequencing; frameworks hold sequencing errors
Measurement type: polyreactivity (PSR sort gate)

Consider the following illustrative entries.
QVHLVESAGGLVQAGGSLRLSSDSSGLIFYRYAMGWYRQAPGKERELVAAITSRSGRTYYADSVKGRFTFSRDNAKNTVYLQMNSLKPEDTAVYYCNAEWRSRYDYWGQGNQVTVSS ... high polyreactivity
QVQLVESGGGLVQAGGSLRLSCAASGFTFVSYAMGWYRQAPGKERELVASITWTGGSTYYADSVKGRFTISRDNAKNTVYLQMNSLKPEDTAVYYDYWGQGTQVTVSS ... low polyreactivity
QVQLVESGGGLVQAGGSLRLSCAASGITFDSYAMGWNRQAPGKERELVAAISYSGGSTYYADSVKGRFTISRDNAKNTVYLQMNSLNPEDTAVYFCAAGSDDDYDYWGQGTQVTVSS ... low polyreactivity
QVQLQESGGGLVQAGGRLRLSCAASGTISGPHVMGWYRQAPGKEREFFAAINVGANTYYADNVKGRYTISRDNAKNTVYLQMNSLKPEDTAVYYCAAVYYGDIGHEYWGQGTQVTVSC ... low polyreactivity

Recorded polyreactivity (PSR sort gate) of QVQLVESGGGLVQAGGSLRLSCAASGRTFRFYAMGWYRQAPGKERELVAAISASGGGTYYADSVKGRFTISRDNAKHTVYLQMNCLKPEDTAVYYCATRRSYKYYWGQGTQVTVSS , please. high polyreactivity

Recorded polyreactivity (PSR sort gate) of QVQLVESGGGLVQAGGSLRLSCAASGRIFLPYAMGWYRQAPGKERELVAAIDTNGGSTYYADSVKGRFTISRDNAKNTVYLQMNSLKPEDSAVYYCAAEVYDYTYVVTFLYDYWGQGTQVTVSS , please. high polyreactivity

Recorded polyreactivity (PSR sort gate) of QVQLVESGGGLVQAGGSLRLSCAASGSINYYAMGWYRQAPVKERELVAAITRSGGGTYYADSVKGRFTISRDNAMNTVYLQMNSLIPEDTAVYYCAAARYSRAQPNWTYNYWGQGTQVTVSS , please. high polyreactivity

----------
experiment: yeast display, Sf9 membrane polyspecificity reagent, FACS + sequencing; frameworks hold sequencing errors
Measurement type: polyreactivity (PSR sort gate)

Consider the following illustrative entries.
QVQLVESGGGLVQAGGSLRLSCAASGFIFVPYALGWYRQAPGKERELVAAISSGGSTYYADSVKGRFTISRDNAKNTVYLQMNSLKPEDTAVYYCNTRYYLYQYRYDYWGQGTQVTVSS ... low polyreactivity
QVQLVESGGGLVQAGGSLRLSCAASGIIFYRNTMGWYRQAPGKERELVAAIRRGGNTYYADSVKGRFTISRDNAKNTVYLQMNSLKPEDTAVYYCAASAGPRASYYYWGQGTQVTVSS ... high polyreactivity
QVQLVESGGGLVQAGGSLRLSCAASGIIFARNTMGWYRQAPGKERELVAAITSSGGNTYYADSVKGRFTISRDNAKNTVYLQKNSLKPEDTAVYYCAAYSRTLYPDRYYWGQGTQVTVSS ... high polyreactivity
QVQLVESGGGLLQAGGSLRLSCAASGFTFRSYDMGWYRQAPGKERELVAAISWRGGRTYYADSVKGRFTISRDNAKNTVDLQMNSLKPEDTAVYYCATDWYWGSYAPYTTRAHFDYWGQGTQVTVSS ... high polyreactivity
QVQLVESGGGLVQAGGSLRLSCAASGSTFPYPYTMGWYRQAPGKERELVAVISRTGGSTFYADSVKGRFTISRDNAKNTVYLQMNSLKPEDTAVYYCAARYAVGAHYDYWGQGTQVTVSS ... high polyreactivity
QVQLVESGGGLVQAGGSLRLSCAASGSIFYAYAMRWYRQAPGKERELVAVINSGGSTYYADSVKGRFTISRDNAKNTVYLQMHSLKPEDTAVYYCNATQDRGKYDYPPRGRGYYYWGQGTQVTVSS ... high polyreactivity

Recorded polyreactivity (PSR sort gate) of QVQLVESGGGLVQAGGSLRLSCAASGITFWSNAMGWYRQAPGKERELVAAITSSGGSTYYADSVKGRFTISRDNAKNTVYLQMNSLKPEDTAVYYCAAPISRSAGWDSYDYWGQGTQVTVSS , please. low polyreactivity

Recorded polyreactivity (PSR sort gate) of QVQLVESGGGLVQAGGSLRLSCAASGRTFRNYAMGWYRQAPGKERELVAAISSGGRTNYADSVKGRFTISRDNAKNTVYLQMNSLKPEDTADYYCAVRRGAFSTYPGYNYWGQGTQVTVSS , please. high polyreactivity

----------
test: yeast display, Sf9 membrane polyspecificity reagent, FACS + sequencing; frameworks hold sequencing errors
Measurement type: polyreactivity (PSR sort gate)

Consider the following illustrative entries.
QVQLVESGGGLVQAGGSLRLSCAASGIIFRVYTMGWYRQAPGKERELVAGLSSGDSTSYADSVKGRFTISRDNAKNTVYLQMNSLKPEDTAVYYCNAVAYYSYSANFRNAYDYWGQGTQVTVSS ... low polyreactivity
QVQLVESGGRLVQAGGSLRLRCAASGSTIPYNAMGWYRQAPGKERELLAAITSGGSTNYADSVKGRFTISRDNAMNTVYLQMNSLKPEDTAVYYCNADSSGWFPFDYWGQGTQVTVSS ... low polyreactivity
QVQLVESGGGLVQAGGSLRLSCAASGSIFRSYAMGWYRQAPGKERELVATIDRSGGSTYYADSVKGRFTISRDNAKNTVYLQMNSLKPEDTAVYYCNKTPHFPRPGFNYWGQGTQVTVSS ... low polyreactivity
QVQLVESGGGLVQAGGSLRLSCAASGRIFDDNTMGWSRQAPGKERELVAAISSGTSTYYADSVKGRFTISRDNAKNTVYLQMNSLKPEDTAVYYCAAVIKWTKDDYWGQGTQVTVSS ... high polyreactivity

Attention now turns to another entry.
Recorded polyreactivity (PSR sort gate) of QVQLVESGGGLVQAGGSLRLSCAASGSSFYYYTMGWYRQAPGKEMELVAAITYSGGSTRYADSVKGRFTISRDNAKNTVYLQMNSLKPEDTAVYYCAAELTEWTNGFDYWGQGTQVTVSS , please. high polyreactivity
